- assay target: T1, HLA-A*0201 loaded with the Carcinoembryonic antigen (CEA)-derived … peptide (biotin on the C-terminal biotinylation tag)
- T1 construct: Soluble, biotinylated, immobilised on a streptavidin chip
- assay comment: Biacore SPR
reported property: koff

Worked cases, answers included:
binder | koff
SEQ ID NO 92 (receptor, mutated soluble two domain ILT-2) MGHLPKPTLWAEPGSVITQGSPVTLRCQGGQETQEYRLYREKKTAPWITRIPQELVKKGQFPIPSITWEHAGRYRCVGWAVTAGRSESSDPLELVVTGVYIKPTLSAQPSPVVNSGGNVTLQCDSQVAFDGFILCKEGEDEHPQCLNSQPHARGSSRAIFSVGPVSPSRRWWYRCYAYDSNSPYEWSLPSDLLELLVL | ≤ 2 s⁻¹
SEQ ID NO 70 (receptor, mutated soluble two domain ILT-2) MGHLPKPTLQAEPGSVITQGSPVTLRCQGGQETQEYRLYREKKTAPWITRIPQELVKKGQFPIPSITWEHAGRYRCVIQRGTAGRSESSDPLELVVTGVYIKPTLSAQPSPVVNSGGNVTLQCDSQVAFDGFILCKEGEDEHPQCLNSQPHARGSSRAIFSVGPVSPSRRWWYRCYAYDSNSPYEWSLPSDLLELLVL | ≤ 2 s⁻¹

Could you now consider this next binder?
Can you look up the measured koff of SEQ ID NO 83 (receptor, mutated soluble two domain ILT-2) MGHLPKPTLWAEPGSVITQGSPVTLRCQGGQETQEYRLYREKKTAPWITRIPQELVKKGQFPIPSITWEHAGRYRCYYGSDTAGRSESSDPLELVVTGIYLAPTLSAQPSPVVNSGGNVTLQCDSQVAFDGFILCKEGEDEHPQCLNSQPHARGSSRAIFSVGPVSPSRRWWYRCYAYDSNSPYEWSLPSDLLELLVL for me? ≤ 2 s⁻¹
